Hey, just so you know, these numbers are from patent US20210317201A1.

Answer each item with its documented pKd.
Target: T1, recombinant human IL-23 (human, UniProt P29460 23-328)
T1 construct: also called Human recombinant IL-23
T1 sequence 1: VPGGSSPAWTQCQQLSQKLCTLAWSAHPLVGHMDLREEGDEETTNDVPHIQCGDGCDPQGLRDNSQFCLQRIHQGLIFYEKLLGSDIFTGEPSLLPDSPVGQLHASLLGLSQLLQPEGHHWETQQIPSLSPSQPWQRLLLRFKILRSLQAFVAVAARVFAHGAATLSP
T1 sequence 2: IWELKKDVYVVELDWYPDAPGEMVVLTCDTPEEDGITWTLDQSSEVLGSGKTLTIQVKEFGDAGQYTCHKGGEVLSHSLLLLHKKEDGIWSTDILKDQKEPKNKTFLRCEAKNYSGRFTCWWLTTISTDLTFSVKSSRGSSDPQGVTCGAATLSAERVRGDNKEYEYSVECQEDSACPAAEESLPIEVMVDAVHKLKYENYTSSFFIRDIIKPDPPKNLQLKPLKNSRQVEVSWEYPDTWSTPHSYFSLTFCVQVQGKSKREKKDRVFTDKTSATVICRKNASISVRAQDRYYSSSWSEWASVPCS
Assay: BLI, Fortebio Octet; hybridoma-derived antibody
The meaning of pKd here: minus log10 of the concentration in molar units.

Fill blank: measured pKd of the binder 18C4 (antibody, V domains shown, Mouse monoclonal antibody from hybridoma; also called 18C4vk; 18C4vh) VH: EVQLQQSGPEVVKPGASVKMSCKASGYTFTSSVIHWVKQKAGQGLEWIGYINPYNDGTKYNEKFKGKATLTSDRSSSTAYMELSSLTSEDSAVYYCTRRLDEAYWGQGTLVTVSA VL: DIVMTQSPATLSVTPGDRVSLSCRASQSISEYLHWYQQKSHESPRLLIKYASQSISGIPSRFSGSGSGSDFTLSINSVEPEDVGVYYCQNGHSFPFTFGSGTKLEIK is ____. 11.25

Can you look up the measured pKd of 74H3 (antibody, V domains shown, Mouse monoclonal antibody from hybridoma; also called 74H3Vk; 74H3VH) VH: EVQLQQSGPELVKPGASVKMSCKASGYTFTRYLMHWVKQKPGQGLEWIGYINPYNDGTKYNERFKGKATLTSDKSSSTAYMELSSLTSEDSAVYYCARNWDVPYWGQGTLVTVSA VL: DIQMTQSPASLSASVGETVIFTCRASENIDSYLAWYQQKQGKSPQLLVYAATNLADGVPSRFSGSGSGTQYSLKINSLQSEDVARYYCLHYYSTPFTFGSGTELEIK for me? 10.17

For the binder shown here, 15C11 (antibody, V domains shown, Mouse monoclonal antibody from hybridoma; also called 15C11vk; 15C11vh) VH: EVQLQQSGPVLVKPGASVKMSCKASGYTFTDYYMNWVKQSHGKSLEWIGVIIPYNGGTSYNQKFKGKATLTVDKSSSTAYMELNSLTSEDSAVYYCARDGHRWYFDVWGTGTTVTVSS VL: DVVMTQTPLSLPVSLGDQASISCRSSQSLVHSNGNTYLHWYLQKPGQSPKLLIYKVSNRFSGVPDRFSGSGSGTDFTLKINRVEAEDLGVYFCSQSTHVPYTFGGGTQLEIK , give the reported pKd. 10.59

I'd like to know its pKd. The binder in question is 34D9 (antibody, V domains shown, Mouse monoclonal antibody from hybridoma; also called 34D9Vk; 34D9VH7) VH: EVQLQQSGPELVKPGASVKIPCKASGYTFTDYNMDWVKKSHGKSLEWIGDINPHNGGTIYNQKFKGKATLTVDKSSSTAHMELRSLTSEDTAVYYCARNYYGSSYGWYFDVWGTGTTVTVSS VL: DIMMTQSHKFMSTSVGDRVSITCKASQDVGNAVVWYQQKPGQSPKLLIYWASTRHIGVPDRFTGSGSGTDFTLTITNVQSEDLADYFCQQYSSYLTFGAGTKLELK 9.26
